Kindly state pIC50 for each of the entries shown.
tested on: MCF7; experiment: Antiproliferative activity against human MCF7 cells with silenced HER2 assessed as cell growth inhibition incubated for 72 hrs by cell titer glo assay; type: functional, cell-based; details: MCF7, 72 h
pIC50: −log10 of the molar value. Starred links: 1 amine or outer side, 2 acyl side, 3 side chain; linkers in the order of their positions; H or OH if unused. Positions of bridges follow the written chain, without caps; N, C: chain ends. Non-standard residues stand in square brackets, D forms with d. Residues, ends and D or L forms follow the SMILES beside them. X1 = N=C(N)NCCC[C@H](N[*:2])C(=O)NC(=O)[C@H](CC(=O)O)NC(=O)[*:1]; βAla(3R-(1-naphthyl)) = O=C(C[C@@H](N[*:1])c1cccc2ccccc12)[*:2]; βAla(3S-(1-naphthyl)) = O=C(C[C@H](N[*:1])c1cccc2ccccc12)[*:2]

Known pIC50 results, listed for orientation:
compound	pIC50
NCCCC[C@H](N)C(=O)N[C@@H](CC(=O)N[C@@H](Cc1ccccc1)C(=O)O)c1ccc(-c2ccccc2)cc1	< 4.00
CC[C@H](C)[C@@H]1NC(=O)[C@H](CO)NC(=O)[C@H](CC(=O)O)NC(=O)[C@H](Cc2ccccc2)NC(=O)[C@@H]2CSSC[C@H](NC(=O)[C@H](Cc3ccccc3)NC(=O)[C@H](CC(=O)O)NC1=O)C(=O)N[C@H](c1cccc3ccccc13)CC(=O)N[C@@H](CCCNC(=N)N)C(=O)NC(=O)[C@H](CC(=O)O)NC(=O)N[C@@H](CCCNC(=N)N)C(=O)N[C@H](c1cccc3ccccc13)CC(=O)N2 (R[βAla(3S-(1-naphthyl))]CFDSIDFC[βAla(3S-(1-naphthyl))]; disulfide 3-10; linker N-C via X1)	< 4.30
CC[C@H](C)[C@H]1C(=O)NC(=O)[C@H](CCCNC(=N)N)NC(=O)C[C@@H](c2cccc3ccccc23)NC(=O)N[C@H]2CSSC[C@H](NC(=O)C[C@@H](c3cccc4ccccc34)NC(=O)[C@H](CCCNC(=N)N)NC(=O)[C@@H]3CCCN3C(=O)[C@@H]3CCCN13)C(=O)N[C@@H](Cc1ccccc1)C(=O)N1CCC[C@H]1C(=O)N[C@@H](CC(=O)O)C(=O)NC(=O)[C@H](CC(=O)O)NC(=O)[C@H](Cc1ccccc1)NC2=O	< 4.70

Batch: pIC50 for all items listed.
1. N=C(N)NCCC[C@@H]1NC(=O)[C@H]2CCCN2C(=O)[C@@H]2CCCN2C(=O)[C@H](CCCNC(=N)N)NC(=O)C[C@H](c2cccc3ccccc23)NC(=O)[C@H](Cc2ccccc2)NC(=O)[C@H](CC(=O)O)NC(=O)[C@H](CC(=O)O)NC(=O)[C@H](Cc2ccccc2)NC(=O)C[C@H](c2cccc3ccccc23)NC1=O (cyclo(DDF[βAla(3R-(1-naphthyl))]RP[dP]R[βAla(3R-(1-naphthyl))]F))
2. CC[C@H](C)[C@H]1C(=O)NC(=O)[C@H](CCCNC(=N)N)NC(=O)C[C@H](c2cccc3ccccc23)NC(=O)N[C@H]2CSSC[C@H](NC(=O)C[C@H](c3cccc4ccccc34)NC(=O)[C@H](CCCNC(=N)N)NC(=O)[C@@H]3CCCN3C(=O)[C@@H]3CCCN13)C(=O)N[C@@H](Cc1ccccc1)C(=O)N1CCC[C@H]1C(=O)N[C@@H](CC(=O)O)C(=O)NC(=O)[C@H](CC(=O)O)NC(=O)[C@H](Cc1ccccc1)NC2=O

Result:
1: < 4.30; 2: < 4.30

Batch: pIC50 for all items listed.
1. N=C(N)NCCC[C@@H]1NC(=O)[C@H]2CCCN2C(=O)[C@@H]2CCCN2C(=O)[C@H](CCCNC(=N)N)NC(=O)C[C@H](c2cccc3ccccc23)NC(=O)N[C@H]2CSSC[C@H](NC(=O)C[C@H](c3cccc4ccccc34)NC1=O)C(=O)N[C@@H](Cc1ccccc1)C(=O)N[C@@H](CC(=O)O)C(=O)NC(=O)[C@H](CC(=O)O)NC(=O)[C@H](Cc1ccccc1)NC2=O
2. N=C(N)NCCC[C@@H]1NC(=O)[C@H]2CCCN2C(=O)[C@@H]2CCCN2C(=O)[C@H](CCCNC(=N)N)NC(=O)C[C@H](c2cccc3ccccc23)NC(=O)N[C@H]2CSSC[C@H](NC(=O)C[C@H](c3cccc4ccccc34)NC1=O)C(=O)N[C@@H](Cc1ccccc1)C(=O)NC(=O)[C@H](Cc1ccccc1)NC2=O

Result:
1: < 4.30; 2: < 4.30
